Tested on: EV71
Assay: Inhibitory activity on EV71 in RD cells by CCK8 method
Assay type: cell-based, enterovirus 71 (EV71)
Settings: EV71 in RD cells; CCK8 method
Where no end group is shown, it is not given here.
measure: pIC50
Answers are plain numbers, as −log10 of the molar value.

Answered examples (5):
sequence.code	pIC50
YGRKKRRQRRRGSGNTIEALFQ [NTQ]	5.64
YGRKKRRQRRRGSGAIGNTIEALFQ [AQ]	5.52
YGRKKRRQRRRGSGTIEALFQ [TQ]	5.75
YGRKKRRQRRRGSGGNTIEALFQ [GQ]	5.75
YGRKKRRQRRRGSGIGNTIEALFQ [IQ]	5.79

Turning to the following sequence.
Per the records, this sequence ( YGRKKRRQRRRGSGIEALFQ [IEQ] ) has pIC50 equal to 5.61
